Numbers sourced from patent US10336762B2.

# system: IRAK4 enzyme (Homo sapiens (Human))
# Sequence (Q9NWZ3 whole entry): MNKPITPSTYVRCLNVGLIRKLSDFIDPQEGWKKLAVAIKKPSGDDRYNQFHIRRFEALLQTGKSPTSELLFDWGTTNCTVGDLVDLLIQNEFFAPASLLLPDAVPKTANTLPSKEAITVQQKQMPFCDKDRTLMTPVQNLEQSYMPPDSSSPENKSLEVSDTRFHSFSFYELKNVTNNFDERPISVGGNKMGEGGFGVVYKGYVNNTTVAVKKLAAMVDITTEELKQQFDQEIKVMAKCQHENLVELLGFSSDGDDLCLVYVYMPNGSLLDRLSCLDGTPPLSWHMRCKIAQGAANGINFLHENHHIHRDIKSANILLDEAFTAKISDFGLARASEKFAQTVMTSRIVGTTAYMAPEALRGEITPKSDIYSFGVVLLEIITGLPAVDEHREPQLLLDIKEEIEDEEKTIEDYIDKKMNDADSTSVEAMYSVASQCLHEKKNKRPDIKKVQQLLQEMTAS
# method.notes: biochemical
# Format: biochemical
# measurement.conditions: IRAK4 enzyme, TR-FRET, 500 μM ATP
observation.type: pIC50
One number for each entry, as −log10 of the molar value.

Illustrative cases are given below, each with its answer.
                                   molecule  observation_type  observed_result
0  COC(=O)N1CCC12CC(Nc1cc(-c3ccc4cc(C#N)cnn34)ncc1C(=O)NC[C@@H](F)C(C)(C)O)C2 (stereo partly shown) [Example 909]             pIC50             7.82
1  CN1CCC(Nc2cc(-c3ccc4cc(C#N)cnn34)ncc2C(=O)NC[C@@H](F)C(C)(C)O)CC1 [Example 114]             pIC50             8.40
2  CC(=O)NC(C)(C)CCNC(=O)c1cnc(-c2ccc3cc(C#N)cnn23)cc1NC12CCC(O)(CC1)CC2 [Example 344]             pIC50             8.70

// next item, pIC50 requested
Prompt: Give its pIC50 value. Item: N#Cc1cnn2c(-c3cc(NC45CCC(O)(CC4)CC5)c(C(=O)NCc4ncccn4)cn3)ccc2c1 [Example 933]
Response: 8.40
